study.target: central benzodiazepine receptors (BDZ-Rs)
run.description: 3H-FNZ binding to rat brain synaptosomal membranes (Section 3)
condition.label: striatum, n=3; read-out: Ki SEM, 3H-FNZ binding
observed.property: pKi
Answers are plain numbers, as −log10 of the molar value.

Incoming: Which pKi value belongs to `O=c1cc(-c2cccc([N+](=O)[O-])c2)oc2ccc(Br)cc12` ?
Outgoing: 8.01
